Tested on: test plant species in Direct Seeded Rice
experiment.summary: Postemergence herbicidal activity in direct seeded rice (Table 13)
Format: in vivo
test.parameters: post-emergence, 504 h; ORYSS: Oryza sativa; 70 g ai/ha; read-out: Visual Growth Reduction (%) 21 Days After Application ORYSS
Catalogue of pest or weed control at 70 g/ha values

chem.smiles	pest or weed control at 70 g/ha
COC(=O)c1nc(-c2ccc(I)cc2F)cc(N)c1Cl	60 to 74%
COC(=O)c1nc(-c2ccc(I)cc2)c(Cl)c(N)c1Cl	0 to 29%
COC(=O)c1nc(-c2ccc(C(F)(F)F)c(F)c2)c(F)c(N)c1Cl	30 to 44%
COC(=O)c1nc(-c2ccc(Br)c(F)c2F)nc(N)c1OC	0 to 29%
COC(=O)c1nc(-c2ccc(C#N)c(F)c2)c(F)c(N)c1Cl	0 to 29%
Nc1cc(-c2ccc(I)cc2F)nc(C(=O)O)c1Cl	85 to 94%
COc1c(N)nc(-c2ccc(Br)c(F)c2F)nc1C(=O)O	85 to 94%

----------
Catalogue of pest or weed control at 140 g/ha values
Test system: Key Grass and Sedge Weeds as well as Grass Crops
experiment.summary: Post-emergent Test II herbicidal activity (Table 6)
Type: in vivo
test.parameters: Triticum aestivum, post-emergence, 336 h, TRZSS (wheat), application rate 140 g ai/ha, read-out: Visual Growth Reduction (%) 14 Days After Application, TRZSS

chem.smiles	pest or weed control at 140 g/ha
Cc1c(-c2ccc(Br)cc2)nc(C(=O)O)c(Cl)c1N	45 to 59%
Nc1c(F)c(-c2ccc(OC(F)F)c(F)c2)nc(C(=O)O)c1Cl	45 to 59%
COC(=O)c1nc(-c2ccc(I)c(F)c2F)cc(N)c1Cl	45 to 59%
Nc1cc(-c2ccc(I)c(F)c2F)nc(C(=O)O)c1Cl	60 to 74%
COC(=O)c1nc(-c2ccc(Br)c(F)c2)cc(N)c1Cl	0 to 29%
COC(=O)c1nc(-c2ccc(I)cc2F)cc(N)c1Cl	60 to 74%
COC(=O)c1nc(-c2ccc(Br)cc2F)cc(N)c1Cl	45 to 59%
Nc1cc(-c2ccc(Br)cc2F)nc(C(=O)O)c1Cl	60 to 74%
COC(=O)c1nc(-c2ccc(C#N)cc2)c(Cl)c(N)c1Cl	0 to 29%
COC(=O)c1nc(-c2ccc(I)c(F)c2)cc(N)c1Cl	0 to 29%
Nc1c(Cl)c(C(=O)O)nc(-c2ccc(Br)c(F)c2)c1Cl	60 to 74%
C#Cc1ccc(-c2nc(C(=O)OC)c(Cl)c(N)c2Cl)cc1	60 to 74%
C=Cc1c(N)nc(-c2ccc(F)c(F)c2F)nc1C(=O)O	30 to 44%

----------
Catalogue of pest or weed control at 140 g/ha values
System: Key Broadleaf Weed and Crop Species
experiment.summary: Post-emergent Test II herbicidal activity (Table 5)
Type: in vivo
test.parameters: post-emergence, 336 h; HELAN: sunflower (Helianthus annuus); application rate 140 g ai/ha; 14 days after application; read-out: Visual Growth Reduction (%) 14 Days After Application, HELAN

chem.smiles	pest or weed control at 140 g/ha
COc1c(N)nc(-c2ccc(I)c(F)c2F)nc1C(=O)O	95 to 100%
C#Cc1ccc(-c2nc(N)c(OC)c(C(=O)OC)n2)c(F)c1F	60 to 74%
C#Cc1ccc(-c2nc(C(=O)O)c(Cl)c(N)c2F)cc1	95 to 100%
COC(=O)c1nc(-c2ccc(Br)c(F)c2)c(F)c(N)c1Cl	95 to 100%
COC(=O)c1nc(-c2ccc(C(F)F)cc2)c(F)c(N)c1Cl	95 to 100%
COC(=O)c1nc(-c2ccccc2)nc(N)c1OC	60 to 74%
COC(=O)c1nc(-c2ccc(I)cc2F)c(F)c(N)c1Cl	0 to 29%
Nc1c(F)c(-c2ccc(Br)c(F)c2)nc(C(=O)O)c1Cl	95 to 100%
Nc1c(F)c(-c2ccccc2)nc(C(=O)O)c1Cl	85 to 94%
C#Cc1ccc(-c2nc(C(=O)OC)c(Cl)c(N)c2F)cc1F	95 to 100%
COC(=O)c1nc(-c2ccc(Br)cc2F)nc(N)c1OC	95 to 100%
COC(=O)c1nc(-c2ccc(C(F)(F)F)c(F)c2)nc(N)c1OC	85 to 94%
C#Cc1ccc(-c2nc(C(=O)OC)c(Cl)c(N)c2F)cc1	95 to 100%
Nc1c(F)c(-c2ccc(I)cc2)nc(C(=O)O)c1Cl	95 to 100%
COC(=O)c1nc(-c2ccc(OC(F)F)c(F)c2F)c(F)c(N)c1Cl	75 to 84%
C#Cc1ccc(-c2nc(C(=O)O)c(Cl)c(N)c2F)cc1F	75 to 84%
COC(=O)c1nc(-c2ccc(C(F)(F)F)c(F)c2F)c(F)c(N)c1Cl	95 to 100%
Nc1c(F)c(-c2ccc(C(F)(F)F)c(F)c2)nc(C(=O)O)c1Cl	95 to 100%
COC(=O)c1nc(-c2ccccc2F)c(F)c(N)c1Cl	85 to 94%
C=Cc1c(C(=O)OC)nc(-c2ccc(Cl)c(F)c2)c(F)c1N	95 to 100%

----------
System: Key Grass and Sedge Weeds as well as Grass Crops
experiment.summary: Post-emergent Test II herbicidal activity (Table 6)
Type: in vivo
test.parameters: post-emergence, 336 h, SETFA: giant foxtail (Setaria faberi), 70 g ai/ha, read-out: Visual Growth Reduction (%) 14 Days After Application, SETFA

chem.smiles	pest or weed control at 70 g/ha
C#Cc1ccc(-c2nc(N)c(OC)c(C(=O)OC)n2)c(F)c1	0 to 29%
COc1c(N)nc(-c2ccc(Br)cc2F)nc1C(=O)O	75 to 84%
COC(=O)c1nc(-c2ccc(C(F)(F)F)c(F)c2F)nc(N)c1OC	30 to 44%
Nc1cc(-c2ccc(Br)c(F)c2F)nc(C(=O)O)c1Cl	75 to 84%
C#Cc1ccc(-c2nc(C(=O)O)c(Cl)c(N)c2F)c(F)c1	45 to 59%
COC(=O)c1nc(-c2ccc(Br)cc2F)nc(N)c1OC	0 to 29%
COC(=O)c1nc(-c2ccc(OC(F)F)cc2)nc(N)c1OC	0 to 29%
COC(=O)c1nc(-c2ccccc2F)c(F)c(N)c1Cl	0 to 29%
COC(=O)c1nc(-c2ccc(Cl)c(F)c2)c(F)c(N)c1Cl	30 to 44%
COC(=O)c1nc(-c2ccc(Br)cc2)nc(N)c1OC	0 to 29%
COC(=O)c1nc(-c2ccc(C(F)F)c(F)c2)cc(N)c1Cl	0 to 29%
Cc1ccc(-c2nc(C(=O)O)c(Cl)c(N)c2F)cc1F	45 to 59%
C#Cc1ccc(-c2nc(C(=O)OC)c(Cl)c(N)c2F)c(F)c1F	0 to 29%
COC(=O)c1nc(-c2ccc(Br)c(F)c2)c(F)c(N)c1Cl	60 to 74%

----------
Test system: TRZSS: wheat, including spring and winter (Triticum aestivum)
experiment.summary: Post-emergent Test III, herbicidal activity in wheat and barley
Assay type: in vivo
test.parameters: Triticum aestivum, post-emergence, 504 h; Table 8; 70 g ai/ha; post-emergent; 21 d; read-out: Visual Growth Reduction (%) 21 Days After Application TRZSS
Catalogue of pest or weed control at 70 g/ha values
observation.type: pest or weed control at 70 g/ha

chem.smiles	reported.value
COc1c(N)nc(-c2ccc(I)c(F)c2)nc1C(=O)O	85 to 94%
Nc1cc(-c2ccc(Br)c(F)c2)nc(C(=O)O)c1Cl	85 to 94%
COC(=O)c1nc(-c2ccc(C#N)c(F)c2)c(F)c(N)c1Cl	30 to 44%
Nc1cc(-c2ccc(I)cc2F)nc(C(=O)O)c1Cl	85 to 94%
COC(=O)c1nc(-c2ccc(I)c(F)c2)nc(N)c1OC	75 to 84%
COC(=O)c1nc(-c2ccc(Br)c(F)c2)nc(N)c1OC	85 to 94%

----------
Test system: Key Broadleaf Weed and Crop Species
experiment.summary: Post-emergent Test II herbicidal activity (Table 5)
Type: in vivo
test.parameters: post-emergence, 336 h; CHEAL: lambsquarters (Chenopodium album); 140 g ai/ha; post-emergent; 14 days after application; read-out: Visual Growth Reduction (%) 14 Days After Application CHEAL
Catalogue of pest or weed control at 140 g/ha values

compound	measured.target	pest or weed control at 140 g/ha
COC(=O)c1nc(-c2ccc(C#N)cc2)c(C)c(N)c1Cl [Compound 83]	Key Broadleaf Weed and Crop Species	0 to 29%
Cc1c(-c2ccc(I)cc2)nc(C(=O)O)c(Cl)c1N [Compound 116]	Key Broadleaf Weed and Crop Species	85 to 94%
COC(=O)c1nc(-c2cc(F)c(C(F)F)cc2F)nc(N)c1OC [Compound 193]	Key Broadleaf Weed and Crop Species	95 to 100%
COc1c(N)nc(-c2cc(F)c(Br)cc2F)nc1C(=O)O [Compound 11]	Key Broadleaf Weed and Crop Species	95 to 100%
COc1c(N)nc(-c2ccc(I)c(F)c2)nc1C(=O)O [Compound 37]	Key Broadleaf Weed and Crop Species	95 to 100%
C=Cc1c(C(=O)O)nc(-c2ccc(I)cc2)c(F)c1N [Compound 17]	Key Broadleaf Weed and Crop Species	95 to 100%
C=Cc1c(N)nc(-c2ccc(C(F)(F)F)c(F)c2)nc1C(=O)O [Compound 32]	Key Broadleaf Weed and Crop Species	95 to 100%
COC(=O)c1nc(-c2cc(F)c(C#N)cc2F)cc(N)c1Cl [Compound 202]	Key Broadleaf Weed and Crop Species	95 to 100%
COC(=O)c1nc(-c2cc(F)ccc2F)c(F)c(N)c1Cl [Compound 189]	Key Broadleaf Weed and Crop Species	85 to 94%

Data credit: patent US9113629B2
